Source listed as patent US20230407243A1.

Tested on: EKO-35-Pore strains with integrated AcrB, AcrEF, AcrD, MdtEF with pGDP2:emrE or empty pGDP-2
Test: Efflux pump interplay MIC profiling (pGDP2:emrE), porinated
Type: cell-based, Escherichia coli
Details: strain acrD pEmrE; Pore +
Field: Fold Change from EKO-35. Provide a value for each of the compounds that follow.
Write no unit; give the number alone.

For this compound ( CN(C)c1ccc(O)c2c1C[C@H]1C[C@H]3[C@H](N(C)C)C(O)=C(C(N)=O)C(=O)[C@@]3(O)C(O)=C1C2=O [minocycline] ), measured Fold Change from EKO-35 is 2

Just so you know, measured Fold Change from EKO-35 for CO[C@@H]1[C@@H](OC(N)=O)[C@@H](O)[C@H](Oc2ccc3c(O)c(NC(=O)c4ccc(O)c(CC=C(C)C)c4)c(=O)oc3c2C)OC1(C)C [novobiocin] came out at 16

Value of Fold Change from EKO-35 reported for the compound CC[n+]1c(-c2ccccc2)c2cc(N)ccc2c2ccc(N)cc21 [ethidium bromide] is 8

Measured Fold Change from EKO-35 of C[n+]1c2cc(N)ccc2cc2ccc(N)cc21.[Cl-] [acriflavine] : 16

----------
Field: log10 MIC. Provide a value for each of the compounds that follow.
The base-10 logarithm of MIC, taken with MIC in µg/mL, is what appears here.

Lab note: compound C[C@@H]1O[C@@H]1P(=O)(O)O tested on EKO-35 araC::acrBD408A Pore; recorded log10 MIC was -0.11

Known value: EKO-35 araC::acrBD408A Pore log10 MIC of the compound CCn1cc(C(=O)O)c(=O)c2cc(F)c(N3CCNCC3)cc21 equals -1.70

Item CO[C@@H]1[C@@H](OC(N)=O)[C@@H](O)[C@H](Oc2ccc3c(O)c(NC(=O)c4ccc(O)c(CC=C(C)C)c4)c(=O)oc3c2C)OC1(C)C ; assay system EKO-35 araC::acrBD408A Pore; log10 MIC reported as -0.41

The value of log10 MIC recorded for O=C(O)c1cn(C2CC2)c2cc(N3CCNCC3)c(F)cc2c1=O when tested on EKO-35 araC::acrBD408A Pore reads -2.70

// returns log10 MIC for NC[C@H]1O[C@H](O[C@H]2[C@H](O)[C@@H](O[C@H]3O[C@H](CO)[C@@H](O)[C@H](N)[C@H]3O)[C@H](N)C[C@@H]2N)[C@H](O)[C@@H](O)[C@@H]1O with EKO-35 araC::acrBD408A Pore; value = -0.11

Lab note: compound CC[n+]1c(-c2ccccc2)c2cc(N)ccc2c2ccc(N)cc21 [ethidium bromide] tested on EKO-35 araC::acrBD408A Pore; recorded log10 MIC was -1.01

Note to self: log10 MIC of CO[C@H]1/C=C/O[C@@]2(C)Oc3c(C)c(O)c4c(O)c(c(/C=N/N5CCN(C)CC5)c(O)c4c3C2=O)NC(=O)/C(C)=C\C=C\[C@H](C)[C@H](O)[C@@H](C)[C@@H](O)[C@@H](C)[C@H](OC(C)=O)[C@@H]1C with EKO-35 araC::acrBD408A Pore was -0.71

Entry CC[C@H]1OC(=O)[C@H](C)[C@@H](O[C@H]2C[C@@](C)(OC)[C@@H](O)[C@H](C)O2)[C@H](C)[C@@H](O[C@@H]2O[C@H](C)C[C@H](N(C)C)[C@H]2O)[C@](C)(O)C[C@@H](C)C(=O)[C@H](C)[C@@H](O)[C@]1(C)O under EKO-35 araC::acrBD408A Pore had log10 MIC of -1.01

Observed log10 MIC on EKO-35 araC::acrBD408A Pore, entry CN(C)c1ccc(O)c2c1C[C@H]1C[C@H]3[C@H](N(C)C)C(O)=C(C(N)=O)C(=O)[C@@]3(O)C(O)=C1C2=O , equals -1.31

Kindly note: EKO-35 araC::acrBD408A Pore, CC(=O)O[C@H]1C[C@@]2(C)[C@@H](C[C@@H](O)[C@H]3[C@@]4(C)CC[C@@H](O)[C@@H](C)[C@@H]4CC[C@@]32C)/C1=C(\CCC=C(C)C)C(=O)O , log10 MIC value reported: -0.41

Item: CCCCCCCCCCCCOS(=O)(=O)[O-].[Na+] [SDS, sodium dodecyl sulphate] | System: EKO-35 araC::acrBD408A Pore | log10 MIC: 1.49

Noted log10 MIC for CC(=O)NC[C@H]1CN(c2ccc(N3CCOCC3)c(F)c2)C(=O)O1 , tested on EKO-35 araC::acrBD408A Pore: 0.59

Query Nc1ccc(S(=O)(=O)Nc2nccs2)cc1 on EKO-35 araC::acrBD408A Pore; log10 MIC returned: 0.10
